Source listed as PubChem BioAssay.

Assay system: Homeobox protein Hox-A13 (Mus musculus) (UniProt Q62424)
Sequence (Q62424 whole entry, looked up): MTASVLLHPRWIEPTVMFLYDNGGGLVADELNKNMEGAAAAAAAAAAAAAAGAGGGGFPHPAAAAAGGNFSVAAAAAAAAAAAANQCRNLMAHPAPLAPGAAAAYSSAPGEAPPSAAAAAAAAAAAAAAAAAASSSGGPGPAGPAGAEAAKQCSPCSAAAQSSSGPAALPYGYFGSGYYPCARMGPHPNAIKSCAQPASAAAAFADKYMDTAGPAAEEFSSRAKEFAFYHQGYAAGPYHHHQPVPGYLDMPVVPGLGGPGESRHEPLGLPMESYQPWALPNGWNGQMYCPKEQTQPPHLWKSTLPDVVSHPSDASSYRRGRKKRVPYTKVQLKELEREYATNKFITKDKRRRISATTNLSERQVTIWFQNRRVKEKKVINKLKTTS
Method notes: inhibitors of HoxA13-DNA binding, primary screen, biochemical, fluorescence polarization, labeled oligonucleotide (AID 1185)
Test conditions: 15 min, higher = more signal, called active from +8 up or from −8 down
Decide by z-score: equal to or exceeding -4 means rule met, less means rule not met.

Molecule	Classification
CC(C)C(=C=CC[C@H](O)c1cccc(OCCO)c1)C[C@H](O)c1ccccn1	rule met
O=C1c2ccccc2[C@@]2(Cc3ccccc3N(CC(F)(F)F)C2=O)[C@H](c2ccc(CO)cc2)N1Cc1ccccc1	rule met
CCc1cccc(NC(=O)O[C@H]2[C@H](OC(=O)Nc3ccccc3-c3ccccc3)[C@H](OC(=O)Nc3ccccc3-c3ccccc3)[C@@H](OC)O[C@@H]2CO)c1	rule met
COc1ccc([Si](C)(C)[C@H]2[C@H](CC(=O)N3CCC[C@H]3CO)O[C@@]3(C(=O)N(C)c4c(Br)cc(C)cc43)[C@@H]2C)cc1	rule not met
O=C1NC(=O)C2C1C=CC(C(O)C(c1ccccc1)c1ccccc1)N2Nc1ccccn1 (centres undefined)	rule not met
C=C[C@@H](CO)NS(=O)(=O)c1ccc(Br)cc1	rule met
[N-]=[N+]=NCc1ccccc1C[C@@]1(C(N)=O)N=C(c2ccc(OCCCO)cc2)O[C@@H]1c1ccccc1N=[N+]=[N-]	rule not met
COCCOC(=O)N1C(=O)[C@@]2(c3cc(C#CC4(O)CCCCCC4)ccc31)[C@H](C(N)=O)[C@H]1C(=O)O[C@H](c3ccccc3)[C@H](c3ccccc3)N1[C@@H]2c1ccc(OCCO)cc1	rule met
CCOC(=O)C[C@H]1[C@H](OC(=O)c2ccccc2-c2ccccc2)[C@@H](NC(=O)CC(C)C)c2cc(OCCCO)ccc2N1C(=O)c1ccccc1	rule not met
[N-]=[N+]=Nc1ccccc1C[C@]1(C(=O)N2CCCCC2)N=C(c2ccc(OCCCO)cc2)O[C@H]1c1ccccc1	rule not met
C[C@]1(C(=O)NC2CC2)c2ccccc2C(=O)N(Cc2cc(F)cc(C(F)(F)F)c2)[C@H]1c1ccc(CO)cc1	rule met
C=CC[C@]1(C(=O)NCC(O)CO)N=C(c2ccc(OCCCO)cc2)O[C@H]1c1ccccc1CN=[N+]=[N-] (some centres undefined)	rule met
C=C(CCCC)C(=O)CC[C@H](OC(=O)c1ccccc1-c1ccccc1C(=O)O)c1cccc(OCCO)c1	rule not met
COCCOC(=O)N1C(=O)[C@@]2(c3cc(C#CCC(C(=O)OC)C(=O)OC)ccc31)[C@H](C(N)=O)[C@H]1C(=O)O[C@H](c3ccccc3)[C@H](c3ccccc3)N1[C@@H]2c1ccccc1OCCO	rule met
CC1CC/C=C\[C@H]2OC34C=CCN(CCN5CCOCC5)C(=O)[C@H]3N(C(CO)C(C)C)C(=O)[C@@H]4C2C(=O)O1 (some centres undefined)	rule not met
CC(C)c1ccc(NN2C(C(O)C3=C[C@H]4C[C@@H](C3)C4(C)C)C=CC3C(=O)N(c4ccccc4)C(=O)C32)cc1 (some centres undefined)	rule met
CC[C@@H](O[Si](C#C[Si](C(C)C)(C(C)C)C(C)C)(C(C)C)C(C)C)c1cn(Cc2cccc(Cl)c2)nn1	rule met
C=CC[C@H](OC(=O)Nc1ccc(SC)cc1)c1ccc(O)c(F)c1	rule met
COC(=O)C[C@H]1O[C@]2(C(=O)N(C)c3ccccc32)[C@@H](C)[C@@H]1[Si](C)(C)c1ccccc1	rule not met
CC1C2C(CCCO)=CC(C3C(=O)N(C)C(=O)C23)N1Cc1cccc(OC(F)(F)F)c1 (centres undefined)	rule not met
CCN1C(=O)C2CC(=O)C3C(CN(S(=O)(=O)c4ccc(C)cc4)C3c3ccc(C)cc3)C2C1=O (centres undefined)	rule not met
Cc1cccc([C@H]2C[C@H]3C(Br)=C[C@@]2(CO)C(=O)[C@]32CO2)c1	rule met
COCCCNC(=O)[C@@]1(Cc2ccccc2I)c2ccccc2C(=O)N(Cc2ccccc2OC)[C@H]1c1ccc(CO)cc1	rule not met
C=CC[C@H](O)c1ccc(O)c(F)c1	rule met
C=CCNC(=O)[C@H]1[C@@H]2C(=O)O[C@@H](c3ccccc3)[C@@H](c3ccccc3)N2[C@@H](c2ccc(OCCO)cc2)[C@]12C(=O)N(C(=O)OCCOC)c1ccc(C#CCNC(N)=O)cc12	rule met
CCOC(=O)C=C1C[C@@H](c2cccc([N+](=O)[O-])c2)O[C@@H](c2cccc([N+](=O)[O-])c2)O1	rule met
C=CCOC(=O)[C@@H]1[C@H]2C(=O)O[C@H](c3ccccc3)[C@H](c3ccccc3)N2[C@H](c2ccc(OCCOC(=O)[C@H]3C[C@H]4C(=O)N[C@@H](CCCCN(C)C)C(=O)N4[C@H]3c3cccc(OCCO)c3)cc2)[C@@]12C(=O)Nc1ccccc12	rule met
CN1C(=O)C2C=CC(C(O)COCc3ccccc3)N(Nc3ccc([N+](=O)[O-])cc3[N+](=O)[O-])C2C1=O (centres undefined)	rule not met
[N-]=[N+]=NCc1ccccc1[C@H]1OC(c2ccc(OCCCO)cc2)=N[C@@]1(Cc1ccccc1N=[N+]=[N-])C(=O)N1CCOCC1	rule met
